Assay: FRG1 expression reporter modulators in myotubes – cell-based, C2C12 myotubes, firefly/Renilla luciferase, luminescence, FRG1 inhibition for FSHD, primary screen (AID 1084)
Settings: FRG1 promoter luciferase, higher = more signal, called active from +8 up or from −8 down
Quick rule for you: z-score at 1 or higher means true, lower means false.

Field: example entries. Status: answers known.
COMPOUND	LABEL VALUE
C=CCNC(=O)[C@@H]1[C@H]2C(=O)O[C@H](c3ccccc3)[C@H](c3ccccc3)N2[C@H](c2ccccc2OCCO)[C@@]12C(=O)Nc1ccc(C#CCC(C(=O)OC)C(=O)OC)cc12	true
C=C(COC)/C(=C/C[C@H](OC(=O)c1ccncc1)c1ccc(CO)o1)c1cnc2ccccc2c1	true
NC(=O)[C@H]1[C@@H]2C(=O)O[C@@H](c3ccccc3)[C@@H](c3ccccc3)N2[C@@H](c2ccc(OCCO)cc2)[C@]12C(=O)Nc1ccc(C#CCCO)cc12	true

Does the compound [N-]=[N+]=NCc1ccccc1[C@@H]1OC(c2ccc(OCCCO)cc2)=N[C@]1(CCS(=O)(=O)c1ccccc1)C(=O)O have recorded z-score that is 1 or more? true

Does the compound CC[C@@H]1O[Si](C(C)C)(C(C)C)c2c1cc(-c1cc(C)c(OC)c(C)c1)nc2-c1ccc(Oc2ccccc2)cc1 have recorded z-score that is 1 or more? false

Does the compound O=C1O[C@H](c2ccccc2)[C@H](c2ccccc2)N2[C@H]1[C@@H](C(=O)O)[C@]1(C(=O)Nc3ccc(C#CCCO)cc31)[C@H]2c1ccccc1OCCO have recorded z-score that is 1 or more? false

Does the compound C=CCC(OC(C)=O)[C@@H]1[C@@H](N(Cc2ccc(-c3cccc(C(F)(F)F)c3)o2)C(=O)Cc2ccc(OC)cc2)c2cc(OCCCO)ccc2N1C(=O)c1ccc(-c2ccccc2)cc1 (some centres not stated) have recorded z-score that is 1 or more? false
